Listing of recorded MIC by entry.
Test system: Trichophyton mentagrophytes
test method notes: Antifungal activity against Trichophyton mentagrophytes after 16 to 18 hrs by serial dilution method
Type: functional
cond: Trichophyton mentagrophytes
experimental endpoint: MIC (µg/mL)

| chemical smiles | numeric result |
| --- | --- |
| COc1cc(-c2nnc(-c3ccccc3COc3ccc(C)cc3)o2)cc(OC)c1OC | 12.5 |
| CCSc1nnc(-c2ccccc2COc2cccc(C)c2)o1 | 25 |
| Cc1ccc(OCc2ccccc2-c2nnc(SCc3ccccc3)o2)cc1 | 25 |
| Cc1cccc(OCc2ccccc2-c2nnc(-c3cc(C)cc(C)c3)o2)c1 | 12.5 |
| Cc1cccc(OCc2ccccc2-c2nnc(SCc3ccccc3)o2)c1 | 25 |
| Cc1ccc(OCc2ccccc2-c2nnc(-c3ccccc3F)o2)cc1 | 6.25 |
| Clc1ccc(OCc2ccccc2-c2nnc(-c3cccc(Br)c3)o2)cc1 | 25 |
| Clc1ccc(CSc2nnc(-c3ccccc3COc3ccc(Cl)cc3)o2)cc1 | 12.5 |
| Cc1ccccc1OCc1ccccc1-c1nnc(SCc2ccc(Cl)cc2Cl)o1 | 12.5 |
| Cc1ccccc1OCc1ccccc1-c1nnc(SCc2ccc(Cl)cc2)o1 | 12.5 |
| Cc1cc(C2CCCCC2)n(O)c(=O)c1.NCCO | 3.12 |

###

Test system: Escherichia coli
test method notes: Antibacterial activity against Escherichia coli after 16 to 18 hrs by serial dilution method; also: test concentration or dose not given here
Format: functional

| chemical smiles | inhibition zone (IZ) |
| --- | --- |
| Cc1ccccc1OCc1ccccc1-c1nnc(-c2cccc(Br)c2)o1 | <10 mm |
| CCSc1nnc(-c2ccccc2COc2ccc(Cl)cc2)o1 | <10 mm |
| Cc1cccc(OCc2ccccc2-c2nnc(-c3cccnc3Cl)o2)c1 | 11 mm |
| Fc1ccccc1-c1nnc(-c2ccccc2COc2ccc(Cl)cc2)o1 | 16 mm |
| Cc1cccc(OCc2ccccc2-c2nnc(-c3cccc(Br)c3)o2)c1 | <10 mm |
| Cc1cccc(OCc2ccccc2-c2nnc(SCc3ccccc3)o2)c1 | <10 mm |

###

Tested on: Klebsiella pneumoniae
test method notes: Antibacterial activity against Klebsiella pneumoniae after 16 to 18 hrs by serial dilution method
Format: functional
cond: Klebsiella pneumoniae

| chemical smiles | MIC (µg/mL) |
| --- | --- |
| CCSc1nnc(-c2ccccc2COc2ccccc2C)o1 | 25 |
| Cc1cccc(OCc2ccccc2-c2nnc(-c3cccc(Br)c3)o2)c1 | 25 |
| Cc1cccc(OCc2ccccc2-c2nnc(-c3cc(C)cc(C)c3)o2)c1 | 12.5 |
| Clc1ccc(OCc2ccccc2-c2nnc(SCc3ccccc3)o2)cc1 | 25 |
| Cc1ccc(OCc2ccccc2-c2nn(CN3CCOCC3)c(=S)o2)cc1 | 12.5 |
| Cc1cc(C)cc(-c2nnc(-c3ccccc3COc3ccc(Cl)cc3)o2)c1 | 12.5 |
| Cc1ccc(OCc2ccccc2-c2nn(CNc3ccc(Cl)cc3C(=O)C(F)(F)F)c(=S)o2)cc1 | 25 |
| Cc1ccccc1OCc1ccccc1-c1nnc(-c2ccc(Cl)cc2)o1 | 25 |
| Cc1cccc(CSc2nnc(-c3ccccc3COc3cccc(C)c3)o2)c1 | 12.5 |
| Cc1cc(C)cc(-c2nnc(-c3ccccc3COc3ccccc3C)o2)c1 | 12.5 |
| Cc1ccc(OCc2ccccc2-c2nnc(-c3cccc(Br)c3)o2)cc1 | 25 |
| Cc1ccc(OCc2ccccc2-c2nnc(-c3ccccc3)o2)cc1 | 25 |
| Cc1ccccc1OCc1ccccc1-c1nnc(SCc2ccc(Cl)cc2Cl)o1 | 6.25 |
| Cc1ccc(OCc2ccccc2-c2nnc(-c3cccnc3Cl)o2)cc1 | 12.5 |
| Cc1ccc(OCc2ccccc2-c2nn(CNc3cc(C)ccc3Cl)c(=S)o2)cc1 | 25 |
| Cc1cccc(OCc2ccccc2-c2nn(CNc3cc(C)ccc3Cl)c(=S)o2)c1 | 25 |
| Clc1ccc(CSc2nnc(-c3ccccc3COc3ccc(Cl)cc3)o2)cc1 | 12.5 |
| O=C(O)c1cn(C2CC2)c2cc(N3CCNCC3)c(F)cc2c1=O | 1.56 |
| Clc1ccc(OCc2ccccc2-c2nnc(SCc3ccc(Cl)cc3Cl)o2)cc1 | 6.25 |
| Cc1cccc(CSc2nnc(-c3ccccc3COc3ccccc3C)o2)c1 | 12.5 |
| Cc1ccc(OCc2ccccc2-c2nn(CNc3cccc(C(F)(F)F)c3)c(=S)o2)cc1 | 6.25 |
| Fc1ccccc1-c1nnc(-c2ccccc2COc2ccc(Cl)cc2)o1 | 6.25 |
| CCSc1nnc(-c2ccccc2COc2ccc(C)cc2)o1 | 25 |
| Cc1ccc(OCc2ccccc2-c2nnc(SCc3cccc(C)c3)o2)cc1 | 12.5 |
| CCSc1nnc(-c2ccccc2COc2ccc(Cl)cc2)o1 | 25 |
| S=c1oc(-c2ccccc2COc2ccc(Cl)cc2)nn1CN1CCOCC1 | 12.5 |
| Cc1cccc(OCc2ccccc2-c2nnc(-c3ccc(Cl)cc3)o2)c1 | 25 |
| Clc1ccc(OCc2ccccc2-c2nnc(-c3cccc(Br)c3)o2)cc1 | 25 |
| Cc1ccccc1OCc1ccccc1-c1nn(CNc2ccc(Cl)cc2C(=O)C(F)(F)F)c(=S)o1 | 25 |
| Cc1cccc(OCc2ccccc2-c2nnc(-c3ccccc3)o2)c1 | 25 |
| Cc1ccccc1OCc1ccccc1-c1nn(CN2CCOCC2)c(=S)o1 | 12.5 |
| Cc1ccccc1OCc1ccccc1-c1nnc(-c2cccnc2Cl)o1 | 12.5 |
| Cc1ccccc1OCc1ccccc1-c1nnc(-c2cccc3ncccc23)o1 | 25 |
| Cc1ccc(OCc2ccccc2-c2nnc(SCc3ccc(Cl)cc3Cl)o2)cc1 | 6.25 |
| Cc1ccc(OCc2ccccc2-c2nnc(-c3ccccc3F)o2)cc1 | 6.25 |
| Cc1ccccc1OCc1ccccc1-c1nnc(-c2cccc(Br)c2)o1 | 25 |
| Clc1ccc(OCc2ccccc2-c2nnc(-c3ccc(Cl)cc3)o2)cc1 | 25 |
| COc1cc(-c2nnc(-c3ccccc3COc3cccc(C)c3)o2)cc(OC)c1OC | 6.25 |
| CCSc1nnc(-c2ccccc2COc2cccc(C)c2)o1 | 25 |
| Cc1cccc(OCc2ccccc2-c2nn(CN3CCOCC3)c(=S)o2)c1 | 12.5 |
| Cc1cccc(OCc2ccccc2-c2nnc(SCc3ccc(Cl)cc3)o2)c1 | 12.5 |
| Cc1ccc(Cl)c(NCn2nc(-c3ccccc3COc3ccccc3C)oc2=S)c1 | 25 |
| Cc1ccc(OCc2ccccc2-c2nnc(-c3cccc4ncccc34)o2)cc1 | 25 |
| Cc1cccc(OCc2ccccc2-c2nnc(-c3cccnc3Cl)o2)c1 | 12.5 |

###

System: Escherichia coli
test method notes: Antibacterial activity against Escherichia coli after 16 to 18 hrs by serial dilution method; also: test concentration or dose not given here
Assay type: functional

| chemical smiles | unit of measure | result qualifier | inhibition zone (IZ) |
| --- | --- | --- | --- |
| Cc1cc(C)cc(-c2nnc(-c3ccccc3COc3ccc(Cl)cc3)o2)c1 | mm | = | 11 |
| Cc1ccccc1OCc1ccccc1-c1nnc(SCc2ccc(Cl)cc2Cl)o1 | mm | = | 11 |
| Cc1cccc(CSc2nnc(-c3ccccc3COc3ccc(Cl)cc3)o2)c1 | mm | = | 11 |
| Cc1ccccc1OCc1ccccc1-c1nnc(-c2ccccc2F)o1 | mm | = | 16 |
| Cc1cccc(CSc2nnc(-c3ccccc3COc3ccccc3C)o2)c1 | mm | = | 11 |
| S=c1oc(-c2ccccc2COc2ccc(Cl)cc2)nn1CN1CCOCC1 | mm | = | 11 |
| Cc1cccc(OCc2ccccc2-c2nnc(-c3ccc(Cl)cc3)o2)c1 | mm | < | 10 |
| FC(F)(F)c1cccc(NCn2nc(-c3ccccc3COc3ccc(Cl)cc3)oc2=S)c1 | mm | = | 16 |
| Cc1cccc(OCc2ccccc2-c2nn(CNc3cccc(C(F)(F)F)c3)c(=S)o2)c1 | mm | = | 16 |
| Cc1ccc(OCc2ccccc2-c2nnc(SCc3cccc(C)c3)o2)cc1 | mm | = | 11 |
| Clc1ccc(OCc2ccccc2-c2nnc(-c3cccc4ncccc34)o2)cc1 | mm | < | 10 |
| CCSc1nnc(-c2ccccc2COc2cccc(C)c2)o1 | mm | < | 10 |
| Cc1ccccc1OCc1ccccc1-c1nnc(-c2ccc(Cl)cc2)o1 | mm | < | 10 |
| Cc1ccc(OCc2ccccc2-c2nnc(-c3ccccc3F)o2)cc1 | mm | = | 16 |
| Cc1ccc(OCc2ccccc2-c2nnc(SCc3ccc(Cl)cc3)o2)cc1 | mm | = | 11 |
| Clc1ccc(CSc2nnc(-c3ccccc3COc3ccc(Cl)cc3)o2)cc1 | mm | = | 11 |
| COc1cc(-c2nnc(-c3ccccc3COc3cccc(C)c3)o2)cc(OC)c1OC | mm | = | 16 |
| Cc1ccccc1OCc1ccccc1-c1nn(CN2CCOCC2)c(=S)o1 | mm | = | 11 |
| Cc1ccc(Cl)c(NCn2nc(-c3ccccc3COc3ccc(Cl)cc3)oc2=S)c1 | mm | < | 10 |
| COc1cc(-c2nnc(-c3ccccc3COc3ccc(Cl)cc3)o2)cc(OC)c1OC | mm | = | 16 |
| Cc1ccc(OCc2ccccc2-c2nnc(-c3ccccc3)o2)cc1 | mm | < | 10 |
| Clc1ccc(OCc2ccccc2-c2nnc(-c3cccnc3Cl)o2)cc1 | mm | = | 11 |
| Cc1ccc(OCc2ccccc2-c2nn(CN3CCOCC3)c(=S)o2)cc1 | mm | = | 11 |
| Cc1cccc(OCc2ccccc2-c2nn(CNc3ccc(Cl)cc3C(=O)C(F)(F)F)c(=S)o2)c1 | mm | < | 10 |
| Cc1ccc(OCc2ccccc2-c2nn(CNc3cccc(C(F)(F)F)c3)c(=S)o2)cc1 | mm | = | 16 |
| Clc1ccc(OCc2ccccc2-c2nnc(-c3ccc(Cl)cc3)o2)cc1 | mm | < | 10 |
| Cc1cccc(OCc2ccccc2-c2nnc(-c3ccccc3F)o2)c1 | mm | = | 16 |
| Cc1cccc(OCc2ccccc2-c2nnc(SCc3ccc(Cl)cc3)o2)c1 | mm | = | 11 |
| Cc1ccc(OCc2ccccc2-c2nn(CNc3cc(C)ccc3Cl)c(=S)o2)cc1 | mm | < | 10 |
| Cc1cccc(CSc2nnc(-c3ccccc3COc3cccc(C)c3)o2)c1 | mm | = | 11 |
| Clc1ccc(OCc2ccccc2-c2nnc(SCc3ccccc3)o2)cc1 | mm | < | 10 |
| Cc1ccc(Cl)c(NCn2nc(-c3ccccc3COc3ccccc3C)oc2=S)c1 | mm | < | 10 |
| COc1cc(-c2nnc(-c3ccccc3COc3ccc(C)cc3)o2)cc(OC)c1OC | mm | = | 16 |
